measured-on: human S1P1 receptor (Homo sapiens)
Construct: membranes used
Sequence (P21453 whole entry): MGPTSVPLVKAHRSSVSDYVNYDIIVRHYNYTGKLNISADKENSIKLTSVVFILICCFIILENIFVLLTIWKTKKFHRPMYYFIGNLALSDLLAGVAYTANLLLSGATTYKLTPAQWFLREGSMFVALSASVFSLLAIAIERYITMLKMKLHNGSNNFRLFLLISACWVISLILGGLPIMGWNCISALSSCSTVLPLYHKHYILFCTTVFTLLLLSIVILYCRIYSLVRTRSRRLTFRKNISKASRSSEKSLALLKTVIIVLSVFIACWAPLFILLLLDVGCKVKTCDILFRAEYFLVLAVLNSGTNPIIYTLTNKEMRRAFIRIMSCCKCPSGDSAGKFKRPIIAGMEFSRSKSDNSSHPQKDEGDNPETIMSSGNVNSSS
protocol-description: GTP γ35S binding assay for S1P1 activity
condition-description: activity potency from GTP γ35S binding; membranes, test compounds 0.08 to 5,000 nM, 30 min at 25° C.
pEC50: −log10 of the molar value.
endpoint: pEC50

INSERT INTO measurements (compound, result) VALUES
  ('CNc1ncccc1-c1noc(C(SC2CCCCC2)c2ccc(Cl)cc2)n1 (stereo not drawn) [Compound 17]', 6.26),
  ('CNc1ncccc1-c1noc(C(Nc2ccc(C)c(C)c2)c2ccccc2)n1 (stereo not drawn) [Compound 10]', 5.62),
  ('CNc1ncccc1-c1noc(C(Oc2ccc(Cl)c(C)c2)c2ccc(Cl)cc2)n1 (stereo not drawn) [Compound 21]', 5.68),
  ('CNc1ncccc1-c1noc(C(Oc2ccc(C)cc2)c2ccc(Cl)cc2)n1 (stereo not drawn) [Compound 26]', 5.51),
  ('CNc1ncccc1-c1noc(C(Oc2ccc(C)cc2)c2cccc(Cl)c2)n1 (stereo not drawn) [Compound 32]', 5.87),
  ('CNc1ncccc1-c1noc(C(Sc2ccoc2C)c2cccc(Cl)c2)n1 (stereo not drawn) [Compound 13]', 5.86),
  ('CNc1ncccc1-c1noc(C(Sc2ccc(C)c(C)c2)c2cccc(Cl)c2)n1 (stereo not drawn) [Compound 5]', 6.67),
  ('CNc1ncccc1-c1noc(C(SC2CCCCC2)c2cccc(C(F)(F)F)c2)n1 (stereo not drawn) [Compound 6]', 5.52),
  ('CNc1ncccc1-c1noc(C(Sc2ccc(C)c(C)c2)c2ccc(Cl)cc2)n1 (stereo not drawn) [Compound 22]', 6.62),
  ('CNc1ncccc1-c1noc(C(Oc2cccc(C)c2)c2ccccc2Cl)n1 (stereo not drawn) [Compound 35]', 5.67),
  ('CNc1ncccc1-c1noc(C(Oc2ccc(C)c(C)c2)c2ccc(Cl)cc2)n1 (stereo not drawn) [Compound 15]', 6.29),
  ('CNc1ncccc1-c1noc(C(Sc2ccc(C)cc2C)c2ccc(Cl)cc2)n1 (stereo not drawn) [Compound 16]', 5.69),
  ('CNc1ncccc1-c1noc(C(Sc2ccc(OC)cc2)c2ccc(Cl)cc2)n1 (stereo not drawn) [Compound 20]', 5.59),
  ('CNc1ncccc1-c1noc(C(Oc2ccc(C)cc2)c2ccccc2Cl)n1 (stereo not drawn) [Compound 30]', 5.72),
  ('CNc1ncccc1-c1noc(C(Nc2ccc(C)c(C)c2)c2cccc(Cl)c2)n1 (stereo not drawn) [Compound 1]', 6.47),
  ('CNc1ncccc1-c1noc(C(Oc2cccc(Cl)c2)c2ccccc2Cl)n1 (stereo not drawn) [Compound 36]', 5.56),
  ('CNc1ncccc1-c1noc(C(Oc2ccc(C)c(C)c2)c2cccc(Cl)c2)n1 (stereo not drawn) [Compound 7]', 5.81),
  ('CNc1ncccc1-c1noc(C(Sc2ccccc2)c2ccccc2)n1 (stereo not drawn) [Compound 27]', 5.88);

---

Parameter: EC50. Scope: all listed entries.
measured-on: human S1P1 receptor (Homo sapiens)
Construct: membranes used
protocol-description: GTP γ35S binding assay for S1P1 activity
condition-description: activity potency from GTP γ35S binding; membranes, test compounds 0.08 to 5,000 nM, 30 min at 25° C.
endpoint: EC50 (nM)

INSERT INTO measurements (compound, measured_on, result) VALUES
  ('CNc1ncccc1-c1noc(C(Sc2ccc(C)c(C)c2)c2cccc(Br)c2)n1 (stereo not drawn)', 'human S1P1 receptor (Homo sapiens)', 650),
  ('CNc1ncccc1-c1noc(C(Sc2ccc(C)cc2)c2ccc(Cl)cc2)n1 (stereo not drawn)', 'human S1P1 receptor (Homo sapiens)', 3190),
  ('CNc1ncccc1-c1noc(C(Sc2ccc(C)c(C)c2)c2cccc(F)c2)n1 (stereo not drawn)', 'human S1P1 receptor (Homo sapiens)', 368);
